inhibition listing for selected molecules.
Target: Tyrosine-protein kinase Mer (Homo sapiens)
Sequence (whole entry): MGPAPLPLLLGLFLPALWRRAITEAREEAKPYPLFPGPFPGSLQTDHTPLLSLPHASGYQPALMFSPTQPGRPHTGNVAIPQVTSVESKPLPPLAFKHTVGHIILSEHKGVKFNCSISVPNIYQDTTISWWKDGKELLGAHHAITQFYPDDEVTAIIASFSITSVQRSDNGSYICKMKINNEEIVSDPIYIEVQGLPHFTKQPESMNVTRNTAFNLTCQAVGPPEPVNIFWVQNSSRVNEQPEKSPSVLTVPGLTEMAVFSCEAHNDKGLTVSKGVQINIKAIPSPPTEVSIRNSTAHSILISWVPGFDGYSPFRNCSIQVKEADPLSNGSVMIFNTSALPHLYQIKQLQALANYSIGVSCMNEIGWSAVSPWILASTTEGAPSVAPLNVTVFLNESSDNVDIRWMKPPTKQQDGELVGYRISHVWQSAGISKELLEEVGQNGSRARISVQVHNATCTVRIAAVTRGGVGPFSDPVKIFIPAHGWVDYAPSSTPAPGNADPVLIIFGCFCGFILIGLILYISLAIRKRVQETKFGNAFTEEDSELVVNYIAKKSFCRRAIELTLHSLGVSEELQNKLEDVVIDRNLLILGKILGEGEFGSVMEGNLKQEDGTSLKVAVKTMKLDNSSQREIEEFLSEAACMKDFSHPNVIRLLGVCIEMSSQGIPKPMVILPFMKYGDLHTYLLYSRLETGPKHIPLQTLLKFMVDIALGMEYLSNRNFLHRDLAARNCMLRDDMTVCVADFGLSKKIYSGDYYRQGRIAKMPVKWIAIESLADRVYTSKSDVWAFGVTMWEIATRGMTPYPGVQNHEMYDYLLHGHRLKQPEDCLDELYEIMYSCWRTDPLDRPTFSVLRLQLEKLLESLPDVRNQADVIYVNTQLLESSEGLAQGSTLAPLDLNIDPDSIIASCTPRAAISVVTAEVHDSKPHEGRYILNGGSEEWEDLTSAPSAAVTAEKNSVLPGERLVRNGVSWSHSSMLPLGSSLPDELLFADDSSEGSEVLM
Conditions: at 0.1 µM
Report the value in % with no unit label.

Record excerpt, results attached:
{"columns": ["molecule", "inhibition [%]"],
 "data": [
  ["COc1cc2ncn(-c3cc(O[C@@H](C)c4ccccc4Cl)c(C(N)=O)s3)c2cc1OC", 4.25],
  ["COc1ccc(COc2ccc(Cc3cnc(N)nc3N)cc2OC)cc1", 2.31],
  ["O=C1NC(=O)C(c2cccc(Cl)c2)=C1Nc1ccc(O)c(Cl)c1", -0.5],
  ["CS(=O)(=O)Nc1ccc(N/C=C2\\C(=O)Nc3ccccc32)cc1", -0.15],
  ["CCCN1CCC=C(c2ccc(Nc3nc(Nc4ccccc4C(N)=O)c4cc[nH]c4n3)c(C)c2)C1", 1.4],
  ["Cc1ccc(C(=O)NC2CCCCC2)cc1-c1ccc(C(=O)NCC2CC2)cc1", 1.63],
  ["CNC(=O)c1cncc(/C=C/c2c(Cl)cccc2Cl)c1", 2.3],
  ["Cc1cc(O)cc(C)c1/C=C/c1cncc(-c2nn[nH]n2)c1", 2.28]
]}

Which inhibition value belongs to CCn1c(-c2nonc2N)nc2c(N3CCCC3)nccc21 ?
0.24

Look up inhibition: CCCN1CCC(Oc2cc(Nc3nc(Nc4cccc(F)c4C(N)=O)c4cc[nH]c4n3)c(OC)cc2Cl)CC1
0.64

Need inhibition, item Cc1nnc(-c2ccc(C)c(-c3ccc(C(=O)Nc4cccc(C#N)c4)cc3)c2)o1
0.8

Looking for the measured inhibition of CCn1c(-c2nonc2N)nc2ccncc21 , can you help?
0.16

I'd like to know its inhibition. The molecule in question is CS(=O)(=O)CCN(CC#N)Cc1ccc(-c2ccc3ncnc(Nc4ccc(OCc5cccc(F)c5)c(Cl)c4)c3c2)o1
2.77

Which inhibition value is on record for CCc1cccc(NC(=O)Nc2ccc(Oc3ccc4nc(NC(=O)OC)[nH]c4c3)cc2)c1 ?
2.96

May I ask what inhibition has been recorded for CN(C)c1cc2c(Nc3ccc4nc(Cc5ccccc5)[nH]c4c3)ncnc2cn1 ?
1.94

Could you share which inhibition value was measured for O=C1Nc2ccc(C(=O)c3ccco3)cc2C1=Cc1cc(Cl)c(O)c(Cl)c1 ?
1.35

Tell me the measured inhibition of c1cnn2ncc(-c3ccnc(Nc4ccc5c(c4)OCCO5)n3)c2c1 , please.
4.03

Query (molecule): Nc1ncnc2occ(-c3ccc(NC(=O)Nc4cc(C(F)(F)F)cc(C(F)(F)F)c4)cc3)c12 ; field requested: inhibition
0.69

For the molecule Fc1cccc(COc2ccc(Nc3ncnc4sc(-c5cccs5)cc34)cc2Cl)c1 , what inhibition is on record?
1.5

Suppose we examine the molecule CN1CCC(C(=O)Nc2n[nH]c3nnc(-c4ccccc4)cc23)CC1 ; what inhibition value has been reported?
1.95

Requested read-out: inhibition. Entry: Cc1nn(C)c2cc(N(C)c3ccnc(Nc4cccc(S(N)(=O)=O)c4)n3)ccc12
2.42

Bench note: what inhibition did CS(=O)(=O)CCNCc1ccc(-c2ccc3ncnc(Nc4ccc(OCc5ccccc5)c(Cl)c4)c3c2)o1 show?
4.37

Field request: inhibition | item: O=C(Nc1n[nH]c2nc(-c3ccco3)c(Br)cc12)C1CC1
1.42

Return reported inhibition; argument: Fc1cccc(COc2ccc(Nc3ncnc4cc(-c5ccc[nH]5)sc34)cc2Cl)c1
1.29

src = ChEMBL document CHEMBL1961873
